This collection of values is drawn from the supplement of paper PMC10567573.

B1: C8orf76 (parent)
chain: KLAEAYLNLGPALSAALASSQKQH

Variants of: B1
Assay: protein stability index of a GFP-peptide fusion (GPS, HEK-293T) (PSI 1-6); higher = more stable;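 note: lentivirally expressed fusions sorted by FACS into six bins by GFP to DsRed ratio, PSI derived from sequencing read proportions per bin multiplied by bin number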
Settings: c terminus: a fixed tail appended

sequenceInput: KLAEHYLNLGPALSAALASSQKQH
protein stability index: 2.04

sequenceInput: KLAEAYLFLGPALSAALASSQKQH
protein stability index: 2.74

sequenceInput: KLAEAYLPLGPALSAALASSQKQH
protein stability index: 2.02
